# Target Desc: Polyunsaturated fatty acid lipoxygenase ALOX15 (Homo sapiens, UniProt P16050)
# Sequence (P16050 whole entry): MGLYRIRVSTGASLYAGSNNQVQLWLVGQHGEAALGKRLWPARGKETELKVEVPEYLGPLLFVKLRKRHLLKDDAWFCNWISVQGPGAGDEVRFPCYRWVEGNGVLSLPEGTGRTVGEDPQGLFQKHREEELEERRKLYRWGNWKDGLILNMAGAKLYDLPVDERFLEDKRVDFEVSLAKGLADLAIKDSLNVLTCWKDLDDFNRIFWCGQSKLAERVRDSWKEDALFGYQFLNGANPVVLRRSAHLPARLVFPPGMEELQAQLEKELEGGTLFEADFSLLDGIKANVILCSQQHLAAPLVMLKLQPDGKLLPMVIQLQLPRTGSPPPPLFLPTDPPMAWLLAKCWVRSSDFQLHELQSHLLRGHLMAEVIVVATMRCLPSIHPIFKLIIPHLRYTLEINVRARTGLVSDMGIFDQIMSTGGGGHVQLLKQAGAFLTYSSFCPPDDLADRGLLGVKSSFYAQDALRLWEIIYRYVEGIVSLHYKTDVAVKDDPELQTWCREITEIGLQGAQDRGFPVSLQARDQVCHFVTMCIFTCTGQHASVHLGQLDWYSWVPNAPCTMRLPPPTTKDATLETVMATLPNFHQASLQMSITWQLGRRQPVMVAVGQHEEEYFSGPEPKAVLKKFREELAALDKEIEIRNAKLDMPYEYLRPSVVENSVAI
Observation Type: pIC50
A value of pIC50 is the negative decimal logarithm of a concentration given in moles per litre.

Can you look up the measured pIC50 of O=c1cc(-c2ccc(O)c(O)c2)oc2cc(O)cc(O)c12 [LUTEOLIN] for me?
5.30

Attribution: ChEMBL document CHEMBL3997767
